SYSTEM_TESTED: Intestinal 5-HT3 receptor (Cavia porcellus, UniProt O70212)
Sequence (O70212 24-490 limits assumed): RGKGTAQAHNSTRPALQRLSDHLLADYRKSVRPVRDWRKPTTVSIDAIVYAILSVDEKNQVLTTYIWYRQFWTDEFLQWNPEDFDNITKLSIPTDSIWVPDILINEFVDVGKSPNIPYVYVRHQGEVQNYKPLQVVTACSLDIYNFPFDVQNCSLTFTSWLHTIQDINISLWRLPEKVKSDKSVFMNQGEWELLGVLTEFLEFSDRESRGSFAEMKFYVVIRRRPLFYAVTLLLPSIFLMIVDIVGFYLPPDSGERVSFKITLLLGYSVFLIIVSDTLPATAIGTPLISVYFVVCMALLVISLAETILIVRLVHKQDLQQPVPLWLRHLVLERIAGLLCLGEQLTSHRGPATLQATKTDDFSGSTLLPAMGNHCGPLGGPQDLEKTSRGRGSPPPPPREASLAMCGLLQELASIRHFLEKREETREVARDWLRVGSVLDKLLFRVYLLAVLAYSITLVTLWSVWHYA
PROTOCOL_DESCRIPTION: Intestinal 5-HT3 receptor antagonism (isolated distal colon, 2-methylserotonin-induced contraction)
Assay type: cell-based, Hartley guinea pigs
EXPERIMENTAL_CONTEXT: isolated distal colon, 2-methylserotonin contraction; read-out: pA2 (converted)
Structures can show the parent of a compound that is named as a salt.
OBSERVABLE: Kb (pM)
Numbers only, in pM.

Worked set:
{"COMPOUND": "O=C(C1CCc2nc[nH]c2C1)N1CC(c2ccccc2O)c2ccccc21 (centres unmarked) [Compound 10, hydrochloride]", "SYSTEM_TESTED": "Intestinal 5-HT3 receptor (Cavia porcellus, UniProt O70212)", "REPORTED_RESULT": 126}
{"COMPOUND": "Cl.O=C(C1CCc2nc[nH]c2C1)N1CC(c2cccc(O)c2)c2ccccc21 (centres unmarked) [Compound 6, hydrochloride]", "SYSTEM_TESTED": "Intestinal 5-HT3 receptor (Cavia porcellus, UniProt O70212)", "REPORTED_RESULT": 100}
{"COMPOUND": "COc1cccc(C2CN(C(=O)C3CCc4nc[nH]c4C3)c3ccccc32)c1 (centres unmarked) [Compound 12, hydrochloride]", "SYSTEM_TESTED": "Intestinal 5-HT3 receptor (Cavia porcellus, UniProt O70212)", "REPORTED_RESULT": 100}
{"COMPOUND": "Cl.O=C(C1CCc2nc[nH]c2C1)N1CC(c2ccccc2)c2ccccc21 (centres unmarked) [Compound 2, hydrochloride]", "SYSTEM_TESTED": "Intestinal 5-HT3 receptor (Cavia porcellus, UniProt O70212)", "REPORTED_RESULT": 1000}
{"COMPOUND": "Cl.O=C(C1CCc2nc[nH]c2C1)N1CC(c2ccccc2)c2ccccc21 (centres unmarked) [Compound 4, hydrochloride]", "SYSTEM_TESTED": "Intestinal 5-HT3 receptor (Cavia porcellus, UniProt O70212)", "REPORTED_RESULT": 251}

// for each compound in input: emit Kb
1. Cl.O=C(C1CCc2nc[nH]c2C1)N1CC(c2ccc(O)cc2)c2ccccc21 (centres unmarked) [Compound 8, hydrochloride]
2. O=C([C@@H]1CCc2[nH]cnc2C1)N1CCc2ccccc21 [YM-114, reference compound]

[A]
1. 100
2. 3980

* * *

Provide the recorded Inhibition rate for the entries that follow.
Tested on: restrained stress-induced diarrhea
PROTOCOL_DESCRIPTION: Inhibiting effect on restrained stress-induced diarrhea (oral administration)
Type: in vivo, Wistar rats
EXPERIMENTAL_CONTEXT: 30 μg/kg, 1 hour before stress
One number for each entry, in %.

Worked set:
{"COMPOUND": "O=C([C@@H]1CCc2[nH]cnc2C1)N1CCc2ccccc21 [YM-114, reference compound]", "Inhibition rate, %": 30}
{"COMPOUND": "Cl.O=C(C1CCc2nc[nH]c2C1)N1CC(c2ccc(O)cc2)c2ccccc21 (stereo not shown)", "Inhibition rate, %": 70}
{"COMPOUND": "Cl.O=C(C1CCc2nc[nH]c2C1)N1CC(c2ccccc2)c2ccccc21 (stereo not shown)", "Inhibition rate, %": 70}

Let us move to another entry and its Inhibition rate.
[Q] For restrained stress-induced diarrhea, provide Inhibition rate of Cl.Cn1cc(C(=O)[C@@H]2CCc3nc[nH]c3C2)c2ccccc21 [YM-060, reference compound] please.
[A] 60
